Reference source: patent US20260248774A1

Assay: Kinetic aqueous solubility (nephelometric assay)
Format: physicochemical
Conditions: kinetic from dmso stock; Table 9; kinetic solubility in water (nephelometric assay)

# COMPOUND, solubility kinetic
measured = [
    ("CC[C@@H](Oc1ncc(Cl)cc1Cl)C(=O)NCc1cccc(C(=O)N2CC3(CC(NCCC(=O)[O-])C3)C2)c1.[Li+] [MBX-5529A]", "≥ 400 µM"),
    ("CC[C@@H](Oc1ncc(Cl)cc1Cl)C(=O)NCc1cccc(C(=O)NC2CC3(C2)CN(CC(=O)[O-])C3)c1.[Li+] [MBX-5527A]", "≥ 400 µM"),
    ("CC[C@@H](Oc1ncc(Cl)cc1Cl)C(=O)NCc1cccc(C(=O)NCC2CC3(C2)CN(CCC(=O)[O-])C3)c1.[Li+] [MBX-5522A]", "≥ 400 µM"),
]
